Target: recombinant poly(ADP-ribose) polymerase 2 (PARP2)
Test: PARP2 chemiluminescent assay
Type: biochemical
Details: inhibition of PARP2 enzyme activity, chemiluminescence
readout: IC50 (nM)

CNC(=O)c1ccc(N2CCN(Cc3ccc4c5c(c(=O)[nH]c4c3)CN(C)C5)CC2)c(C)n1 = 2380
CNC(=O)c1ccc(N2CCN(Cc3ccc4c([nH]c(=O)c5occc54)c3C)CC2)c(F)n1 = 667
O=C(NC1CC1)c1ccc(N2CCN(Cc3ccc4c([nH]c(=O)c5c(F)cnn54)c3F)CC2)c(F)n1 = 315
CNC(=O)c1ccc(N2CCN(Cc3cc4[nH]c(=O)c5c(F)cnn5c4cc3F)CC2)c(C)n1 = 1390
Cc1cnn2c1c(=O)[nH]c1c(F)c(CN3CCN(c4ccc(C(=O)NC5CC5)nc4F)CC3)ccc12 = 731

A: CNC(=O)c1ccc(N2CCN(Cc3ccc4c([nH]c(=O)c5cn[nH]c54)c3F)CC2)c(C)n1
B: [2H]C([2H])([2H])NC(=O)c1ccc(N2CCN(Cc3ccc4c([nH]c(=O)c5c(F)cnn54)c3F)CC2)c(F)n1
C: CNC(=O)c1ccc(N2CCN(Cc3ccc4c(c3)[nH]c(=O)c3c4ncn3C)CC2)c(C)n1
Prompt: Arrange the 3 compounds by rising IC50, starting with the smallest. Put the labels in the requested order and list them out.
Completion: A, B, C
(A: 278 nM, B: 431 nM, C: 2060 nM)

I: CNC(=O)c1ccc(N2CCN(Cc3cc(F)c4c(c3)[nH]c(=O)n3cc(C)nc43)CC2)c(F)n1
II: O=C(NC1CC1)c1ccc(N2CCN(Cc3ccc4c([nH]c(=O)n5ccnc45)c3F)CC2)c(F)n1
III: CNC(=O)c1ccc(N2CCN(Cc3ccc4c5c(c(=O)[nH]c4c3)CNC5)CC2)c(C)n1
Prompt: Sort these compounds on IC50 so the largest reading comes first. Put the labels in the requested order and list them out.
Completion: II, III, I
(II: 5450 nM, III: 2980 nM, I: 266 nM)

----------
Tested on: MDA-MB-436 cells
Test: Growth inhibition assay against BRCA mutant human breast cancer MDA-MB-436 cell line (CCK-8)
Assay type: cell-based
Conditions: Homo sapiens, MDA-MB-436, […], proliferation of MDA-MB-436 cells, 7 days
pIC50: −log10 of the molar value.
readout: pIC50

CNC(=O)c1ccc(N2CCN(Cc3ccc4c([nH]c(=O)c5cn[nH]c54)c3F)CC2)c(F)n1 [Example 46] = 7.78
CNC(=O)c1ccc(C2=CCN(Cc3ccc4c([nH]c(=O)c5c(F)cnn54)c3F)CC2)c(F)n1 [Example 197] = 8.92

P: CNC(=O)c1ccc(N2CCN(Cc3ccc4c([nH]c(=O)n5cc(C)nc45)c3F)CC2)c(F)n1 [Example 140]
Q: CNC(=O)c1ccc(N2CCN(Cc3ccc4c(c3)[nH]c(=O)c3ocnc34)CC2)c(C)n1 [Example 14]
Prompt: For the two items P and Q , which reports the higher pIC50 value? State your choice using its label.
Completion: P
(P: 8.65, Q: 7.67)

----------
Tested on: MDA-MB-436 cells
Assay: Growth inhibition assay against BRCA mutant human breast cancer MDA-MB-436 cell line (CCK-8)
Type: cell-based
Settings: Homo sapiens, MDA-MB-436, […], proliferation of MDA-MB-436 cells, 7 days
readout: IC50 (nM)

Worked examples, 5 molecules total:
CNC(=O)c1ccc(N2CCN(Cc3ccc4c(c3)[nH]c(=O)c3c4cnn3C)CC2)c(C)n1 [Example 71] = 11
[2H]C([2H])([2H])NC(=O)c1ccc(N2CCN(Cc3ccc4c([nH]c(=O)c5c(C)cnn54)c3F)CC2)c(F)n1 [Example 159] = 3.91
CNC(=O)c1ccc(N2CCN(Cc3ccc4c([nH]c(=O)c5ccoc54)c3F)CC2)c(C)n1 [Example 43] = 5.86
CNC(=O)c1ccc(N2CCN(Cc3ccc4c([nH]c(=O)c5cncn54)c3F)CC2)c(Cl)n1 [Example 56] = 4.08
CNC(=O)c1ccc(N2CCN(Cc3ccc4c(c3)[nH]c(=O)c3c[nH]cc34)CC2)c(C)n1 [Example 34] = 5.06

I: CNC(=O)c1ccc(N2CCN(Cc3cc4[nH]c(=O)c5cn(C)nc5c4cc3F)CC2)c(C)n1 [Example 89]
II: CNC(=O)c1ccc(N2CCN(Cc3ccc4c([nH]c(=O)n5ccnc45)c3F)CC2)c(F)n1 [Example 61]
Prompt: Consider entries I and II . Which has the numerically lower IC50? State your choice using its label.
Completion: I
